target: NEU1 (neuraminidase 1) (Homo sapiens); construct: recombinant human NEU1 protein; assay: SPR (Biacore T200, NEU1 immobilized on CM5 chip); format: binding

- COMPOUND: "O=C(/C=C/c1ccc(O)c(O)c1)O[C@H](Cc1ccc(O)c(O)c1)C(=O)O [rosmarinic acid]"
  U: "nM"
  Kd: 141

These data points were gathered from paper PMC10043283.
